The reader will find reported inhibition at 10 µM values listed item by item below.
# study_target: hFASN enzyme (full length) (Homo sapiens, UniProt P49327)
# Construct: 10 μL hFASN enzyme (full length, 300 ng, purified in house); made in house
# Sequence (P49327 whole entry): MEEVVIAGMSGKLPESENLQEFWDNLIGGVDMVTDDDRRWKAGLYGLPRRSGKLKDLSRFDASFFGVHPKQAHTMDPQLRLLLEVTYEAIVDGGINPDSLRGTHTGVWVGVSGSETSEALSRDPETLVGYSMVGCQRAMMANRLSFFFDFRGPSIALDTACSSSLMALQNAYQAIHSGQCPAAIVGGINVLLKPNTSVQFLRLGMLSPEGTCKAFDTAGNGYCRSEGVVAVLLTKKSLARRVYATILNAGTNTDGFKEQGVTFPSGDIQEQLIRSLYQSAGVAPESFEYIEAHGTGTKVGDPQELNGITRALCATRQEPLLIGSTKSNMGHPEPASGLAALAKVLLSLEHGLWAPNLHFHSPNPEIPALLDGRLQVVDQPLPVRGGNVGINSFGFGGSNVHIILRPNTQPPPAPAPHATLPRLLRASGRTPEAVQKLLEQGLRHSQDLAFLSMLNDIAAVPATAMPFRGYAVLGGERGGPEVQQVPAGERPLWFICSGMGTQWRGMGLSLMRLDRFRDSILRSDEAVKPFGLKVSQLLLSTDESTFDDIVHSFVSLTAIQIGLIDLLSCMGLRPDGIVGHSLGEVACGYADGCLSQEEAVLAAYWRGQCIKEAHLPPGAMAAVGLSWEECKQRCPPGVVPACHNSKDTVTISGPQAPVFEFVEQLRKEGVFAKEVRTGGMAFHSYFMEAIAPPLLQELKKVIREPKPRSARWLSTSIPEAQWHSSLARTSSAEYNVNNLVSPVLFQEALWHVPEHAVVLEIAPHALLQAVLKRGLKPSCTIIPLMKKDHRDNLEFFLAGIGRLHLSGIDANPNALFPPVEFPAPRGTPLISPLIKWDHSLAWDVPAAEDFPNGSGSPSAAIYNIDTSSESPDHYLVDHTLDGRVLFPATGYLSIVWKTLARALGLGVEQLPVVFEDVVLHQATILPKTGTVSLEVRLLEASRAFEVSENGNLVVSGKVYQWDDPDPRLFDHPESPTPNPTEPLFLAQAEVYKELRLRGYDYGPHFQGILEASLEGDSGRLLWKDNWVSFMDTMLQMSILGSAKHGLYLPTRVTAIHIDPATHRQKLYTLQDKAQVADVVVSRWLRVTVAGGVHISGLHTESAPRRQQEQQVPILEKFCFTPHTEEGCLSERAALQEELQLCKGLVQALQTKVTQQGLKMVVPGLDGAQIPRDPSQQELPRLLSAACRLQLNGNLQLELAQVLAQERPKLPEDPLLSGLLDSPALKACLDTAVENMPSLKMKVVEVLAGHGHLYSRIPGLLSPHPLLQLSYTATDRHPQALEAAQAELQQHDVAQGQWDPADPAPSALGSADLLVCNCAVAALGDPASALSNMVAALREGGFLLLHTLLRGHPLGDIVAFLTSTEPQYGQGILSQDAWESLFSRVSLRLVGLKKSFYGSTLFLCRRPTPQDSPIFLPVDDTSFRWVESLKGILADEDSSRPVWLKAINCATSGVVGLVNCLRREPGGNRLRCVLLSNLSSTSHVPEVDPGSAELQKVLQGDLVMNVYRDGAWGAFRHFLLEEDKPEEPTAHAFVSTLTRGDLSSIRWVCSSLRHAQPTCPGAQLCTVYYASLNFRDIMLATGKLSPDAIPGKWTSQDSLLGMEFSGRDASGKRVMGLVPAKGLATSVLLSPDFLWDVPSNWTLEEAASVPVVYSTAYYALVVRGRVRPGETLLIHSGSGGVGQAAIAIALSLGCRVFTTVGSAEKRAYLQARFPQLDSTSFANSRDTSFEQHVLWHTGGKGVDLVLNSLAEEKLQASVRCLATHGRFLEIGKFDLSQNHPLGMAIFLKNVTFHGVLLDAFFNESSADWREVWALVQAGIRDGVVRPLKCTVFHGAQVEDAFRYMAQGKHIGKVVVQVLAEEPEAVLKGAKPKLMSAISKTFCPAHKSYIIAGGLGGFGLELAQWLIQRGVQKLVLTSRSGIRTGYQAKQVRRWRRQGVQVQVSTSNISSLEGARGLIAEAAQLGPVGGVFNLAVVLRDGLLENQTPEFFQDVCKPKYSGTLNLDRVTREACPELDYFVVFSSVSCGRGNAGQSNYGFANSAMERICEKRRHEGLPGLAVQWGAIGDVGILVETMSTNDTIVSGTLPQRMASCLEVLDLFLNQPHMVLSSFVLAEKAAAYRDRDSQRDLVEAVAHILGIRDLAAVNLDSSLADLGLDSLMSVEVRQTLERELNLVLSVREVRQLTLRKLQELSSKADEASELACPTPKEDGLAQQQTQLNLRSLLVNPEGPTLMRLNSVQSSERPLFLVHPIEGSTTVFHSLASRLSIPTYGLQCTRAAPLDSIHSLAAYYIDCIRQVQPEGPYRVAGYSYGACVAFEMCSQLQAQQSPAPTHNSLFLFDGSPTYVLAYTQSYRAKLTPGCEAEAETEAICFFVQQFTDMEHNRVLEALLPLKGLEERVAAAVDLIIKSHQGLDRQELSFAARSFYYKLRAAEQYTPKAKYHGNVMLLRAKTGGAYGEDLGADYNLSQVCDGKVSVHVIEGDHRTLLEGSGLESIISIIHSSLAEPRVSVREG
# run_description: Fatty Acid Synthase (FASN) inhibition scintillation proximity assay
# Format: biochemical
# condition_parameters: read-out: Human FASN % inhibition @ 10 μM, 10 μM test compound
Give the value, in units of %, as a plain number.

# count of solved cases: 4
CC(C)N1CCC2(CC1)N=C(c1ccc(-c3ccc(-c4cnn(C)c4)cc3)cc1)N(CC1CN(C(=O)C3CC3)C1)C2=O ... 44
Cc1cc(-c2ccc3c(cnn3C)c2)ccc1C1=NC2(CC2)C(=O)N1CC1CN(C(=O)C2(N)CC2)C1 ... 97
Cn1ncc2cc(-c3ccc(C4=NC5(CCOC5)C(=O)N4CC4CN(S(C)(=O)=O)C4)cc3)ccc21 (stereo not shown) ... 5
Cn1ncc2cc(-c3ccc(C4=NC5(CCOC5)C(=O)N4CC4CN(C(=O)c5nccs5)C4)cc3)ccc21 (stereo not shown) ... 6

Query string: What inhibition at 10 µM value was documented for this compound, O=C(N1CC[C@@H](CN2C(=O)C3(CCOCC3)N=C2c2ccc(-c3ccc4occc4c3)cc2)C1)C(F)(F)F ?
Result string: 56

Query string: Let us now turn to O=C(N1CCCC1)N1CC[C@@H](CN2C(=O)C3(CCOC3)N=C2c2ccc(-c3ccc4occc4c3)cc2)C1 (stereo partly shown)
Result string: 61

Query string: Let us now turn to O=C(N1CC(CN2C(=O)C3(CC3)N=C2c2ccc(-c3ccc4cccc(F)c4c3)cc2F)C1)C1(O)CC1
Result string: 99

Query string: Let us now turn to Cn1cc(CCO)c2cc(-c3ccc(C4=NC5(CC5)C(=O)N4CC4CN(C(=O)C5CC5)C4)c(F)c3)ccc21
Result string: 89

Query string: Let us now turn to Cc1cc(-c2ccc(-c3cnn(C4CC4)c3)cc2)ccc1C1=NC2(CC2)C(=O)N1CC1CN(C(=O)C2(C)CC2)C1
Result string: 105

Query string: Let us now turn to COC(=O)N1CC[C@@H](CN2C(=O)C3(CCOC3)N=C2c2ccc(-c3ccc(-c4cnn(C)c4)cc3)cc2)C1 (stereo partly shown)
Result string: 20

Query string: Let us now turn to CCCc1ccc(-c2ccc(C3=NC4(CC4)C(=O)N3CC3CN(C(=O)C4CC4)C3)cc2)cn1
Result string: 34

Query string: Let us now turn to CC(C)n1ncc2ccc(-c3ccc(C4=NC5(CC5)C(=O)N4CC4CN(C(=O)C5CC5)C4)cc3)cc21
Result string: 80

----------
The reader will find reported IC50 values listed item by item below.
# study_target: hFASN enzyme (full length) (Homo sapiens)
# Construct: 10 μL hFASN enzyme (full length, 300 ng, purified in house); made in house
# run_description: Fatty Acid Synthase (FASN) inhibition scintillation proximity assay
# Type: biochemical
# condition_parameters: read-out: Human FASN pIC50 (converted)

# count of solved cases: 6
Cn1ncc2cc(-c3ccc(C4=NC5(CCOC5)C(=O)N4CC4CN(S(C)(=O)=O)C4)cc3)ccc21 (stereo not shown) ... > 10000 nM
O=C(C1CC1)N1CC[C@@H](CN2C(=O)C3(CC3)N=C2c2ccc(-c3ccc(F)cc3)cc2)C1 ... 100 nM
Cc1cc(-c2ccc3c(cnn3C)c2)ccc1C1=NC2(CC2)C(=O)N1CC1CN(C(=O)C(C)C)C1 ... 269 nM
Cn1ncc2cc(-c3ccc(C4=NC5(CC5)C(=O)N4CC4CN(C(=O)C5(C)CC5)C4)c(F)c3)ccc21 ... 39.8 nM
COC(=O)c1cccc(-c2ccc(C3=NC4(CC4)C(=O)N3C[C@@H]3CCN(C(=O)C4CC4)C3)cc2)c1 ... 3720 nM
Cn1cc(-c2ccc(-c3ccc(C4=NC5(CC5)C(=O)N4CC4CN(C(=O)C5CC5)C4)cc3)cn2)cn1 ... 646 nM

Let's switch to this compound now.
Query string: What IC50 value was documented for this compound, O=C(C1CC1)N1CC[C@@H](CN2C(=O)C3(CC3)N=C2c2ccc(-c3ccc(O)cc3)cc2)C1 ?
Result string: 708 nM

----------
# study_target: hFASN enzyme (full length) (Homo sapiens, UniProt P49327)
# Construct: 10 μL hFASN enzyme (full length, 300 ng, purified in house); made in house
# run_description: Fatty Acid Synthase (FASN) inhibition scintillation proximity assay
# Assay type: biochemical
# condition_parameters: read-out: Human FASN % inhibition @ 10 μM, 10 μM test compound
value_kind: inhibition at 10 µM (%)
Give the value, in units of %, as a plain number.

# count of solved cases: 2
O=C(N1CC[C@@H](CN2C(=O)C3(CCCC3)N=C2c2ccc(-c3ccc4occc4c3)cc2)C1)C1(O)CC1 [compound 878] ... 113
Cn1ncc2nc(-c3ccc(C4=NC5(CC5)C(=O)N4CC4CN(C(=O)C5CC5)C4)cc3)ccc21 [compound 792] ... 38

Query string: What inhibition at 10 µM value was documented for this molecule, Cc1cc(-c2ccc3ccc(C(N)=O)nc3c2)ccc1C1=NC2(CC2)C(=O)N1CC1CN(C(=O)C2(C)CC2)C1 [compound 579] ?
Result string: 83

Query string: Let us now turn to CN(C)CC(=O)N1CCC2(CC1)N=C(c1ccc(-c3ccc(-c4cnn(C)c4)cc3)cc1)N(CC1CN(C(=O)C3CC3)C1)C2=O [compound 768]
Result string: 79

Query string: Let us now turn to Cc1ccc2ccc(-c3ccc(C4=NC5(CC5)C(=O)N4CC4CN(C(=O)C5(C)CC5)C4)c(C)c3)cc2n1 [compound 576]
Result string: 99

Query string: Let us now turn to O=C(C1CC1)N1CCC[C@H](CN2C(=O)C3(CC3)N=C2c2ccc(-c3ccc4sccc4c3)cc2)C1 [compound 817]
Result string: 1

Query string: Let us now turn to Cn1cc(-c2ccc(C3=NC4(CC4)C(=O)N3CC3CN(C(=O)C4CC4)C3)cc2)cn1 [compound 42]
Result string: 23.5

Query string: Let us now turn to O=C(C1CC1)N1CC[C@@H](CN2C(=O)C3(CCCC3)N=C2c2ccc(-c3cnc4[nH]ccc4c3)cc2F)C1 [compound 881]
Result string: 101

----------
# study_target: hFASN enzyme (full length) (Homo sapiens, UniProt P49327)
# Construct: 10 μL hFASN enzyme (full length, 300 ng, purified in house); made in house
# run_description: Fatty Acid Synthase (FASN) inhibition scintillation proximity assay
# Type: biochemical
# condition_parameters: read-out: Human FASN pIC50 (converted)
The reader will find reported IC50 values listed item by item below.
Give the value, in units of nM, as a plain number.

C=CC(=O)N1CC[C@@H](CN2C(=O)C3(CCN(Cc4ccccc4)CC3)N=C2c2ccc(-c3ccc4occc4c3)cc2)C1 [compound 90] ... 309
Cn1ncc2cc(-c3ccc(C4=NC5(CC5)C(=O)N4CC4CN(C(=O)C5CC5)C4)cc3)cnc21 [compound 503] ... 5750

Query string: What IC50 value was documented for this molecule, O=C(C1CC1)N1CC(CN2C(=O)C3(CC3)N=C2c2ccc(-c3cc4ccccc4nc3O)cc2)C1 [compound 532] ?
Result string: 5370

Query string: Let us now turn to N#CCc1c[nH]c2ccc(-c3ccc(C4=NC5(CC5)C(=O)N4C[C@@H]4CCN(C(=O)C5CC5)C4)cc3)cc12 [compound 212]
Result string: 28.2

Query string: Let us now turn to CS(=O)(=O)c1cccc(-c2ccc(C3=NC4(CC4)C(=O)N3C[C@@H]3CCN(C(=O)C4CC4)C3)c(F)c2)c1 [compound 634]
Result string: 3020

Query string: Let us now turn to O=C(C1CC1)N1CC[C@@H](CN2C(=O)C3(CCCC3)N=C2c2ccc(-c3ccc4occc4c3)cc2F)C1 [compound 120]
Result string: 38.9

Query string: Let us now turn to Cc1cc(-c2ccc3cc(F)ccc3c2)ccc1C1=NC2(CC2)C(=O)N1C[C@@H]1CCN(C(=O)C2(C)CC2)C1 [compound 266]
Result string: 33.9

----------
The reader will find reported inhibition at 10 µM values listed item by item below.
# study_target: hFASN enzyme (full length) (Homo sapiens)
# Construct: 10 μL hFASN enzyme (full length, 300 ng, purified in house); made in house
# run_description: Fatty Acid Synthase (FASN) inhibition scintillation proximity assay
# Assay type: biochemical
# condition_parameters: read-out: Human FASN % inhibition @ 10 μM, 10 μM test compound
Don't forget the unit after the value.

# count of solved cases: 5
Cc1cc(-c2ccc3ccc(Br)cc3n2)ccc1C1=NC2(CC2)C(=O)N1CC1CN(C(=O)C2(C)CC2)C1 [compound 595] ... 83%
Cc1cc(-c2ccc3c(cnn3C)c2)ccc1C1=NC2(CC2)C(=O)N1CC1CN(C(=O)C2(O)CC2)C1 [compound 498] ... 99%
O=C(C1CC1)N1CC(CN2C(=O)C3(CC3)N=C2c2ccc(-c3cccc4[nH]ncc34)c(F)c2)C1 [compound 443] ... 88%
CCn1ncc2cc(-c3ccc(C4=NC5(CC5)C(=O)N4CC4CN(C(=O)C5CC5)C4)c(F)c3)ccc21 [compound 521] ... 94%
Cc1cc(-c2ccc(C3=NC4(CC4)C(=O)N3CC3CN(C(=O)C4CC4)C3)cc2)nc2cc(Br)ccc12 [compound 791] ... -2%

Query string: Give recorded inhibition at 10 µM with hFASN enzyme (full length) (Homo sapiens) for the following compound: O=C(C1CC1)N1CC[C@@H](CN2C(=O)C3(CC3)N=C2c2ccc(-c3ccc4occc4c3)c(F)c2)C1 [compound 232]
Result string: 105%

Query string: Let us now turn to COC(=O)N1CC2(C1)N=C(c1ccc(-c3ccc4occc4c3)cc1)N(C[C@@H]1CCN(C(=O)c3nccs3)C1)C2=O [compound 957]
Result string: 13%
